Recorded IC50 for the following compounds
STUDY TARGET: Integrin alpha-V/beta-3 (Homo sapiens, UniProt P05106+P06756)
METHOD NOTES: Inhibition of human integrin alphav beta3 receptor by biotinylated vitronectin competitive binding assay
OBSERVATION TYPE: IC50 (nM)

Cc1ccnc(NCCCCOc2ccc(C[C@H](NS(=O)(=O)c3cccc(C(F)(F)F)c3)C(=O)O)cc2N)c1 : 0.6
NCCCOc1ccc(C[C@H](NS(=O)(=O)c2cccc(C(F)(F)F)c2)C(=O)O)cc1N : 138
NCCCCOc1ccc(C[C@H](NS(=O)(=O)c2cccc(C(F)(F)F)c2)C(=O)O)cc1N : 428
Nc1cc(C[C@H](NS(=O)(=O)c2cccc(C(F)(F)F)c2)C(=O)O)ccc1OCCCCNc1ccccn1 : 1.4
CC(=O)Nc1cc(C[C@H](NS(=O)(=O)c2cccc(C(F)(F)F)c2)C(=O)O)ccc1OCCCc1ccc2c(n1)NCCC2 : 0.6
CC(=O)Nc1cc(C[C@H](NS(=O)(=O)c2cccc(C(F)(F)F)c2)C(=O)O)ccc1OCCCCNc1cc(C)ccn1 : 0.7
NC(N)=NCCCOc1ccc(C[C@H](NS(=O)(=O)c2cccc(C(F)(F)F)c2)C(=O)O)cc1N : 7.6
N=C(N)NCCCCOc1ccc(C[C@H](NS(=O)(=O)c2cccc(C(F)(F)F)c2)C(=O)O)cc1N : 1.7
Nc1cc(C[C@H](NS(=O)(=O)c2cccc(C(F)(F)F)c2)C(=O)O)ccc1OCCCCN=C1NCCCN1 : 0.8
